Cited source for all entries: ChEMBL document CHEMBL3885861

Organism: Rattus norvegicus
Assay: Open TG-GATES - Regimen: Daily Repeat
Assay type: toxicity, organism-based, Sprague-Dawley
Parameters: regimen Daily Repeat, gender Male, age 6 weeks
Conditions: in vivo, po, 100 mg/kg, […], tissue Blood, route gavage, dose level Low, time 28 day
MEASUREMENT KIND: Neu (%)
Numbers only, in %.

Some compounds with known Neu results, for comparison:
1) CN/C(=N/CCSCc1nc[nH]c1C)NC#N [CIMETIDINE] :: 15.6
2) COC(=O)C1=C(C)NC(C)=C(C(=O)OC)C1c1ccccc1[N+](=O)[O-] [NIFEDIPINE] :: 23.6
3) Cc1nnc2n1-c1ccc(Cl)cc1C(c1ccccc1Cl)=NC2 [TRIAZOLAM] :: 17.6

Consider the following items and state reported Neu for each.
1. CNC(=C[N+](=O)[O-])NCCSCc1ccc(CN(C)C)o1 [RANITIDINE]
2. O=C(OC[C@H]1O[C@@H](OC(=O)c2cc(O)c(O)c(OC(=O)c3cc(O)c(O)c(O)c3)c2)[C@H](OC(=O)c2cc(O)c(O)c(OC(=O)c3cc(O)c(O)c(O)c3)c2)[C@@H](OC(=O)c2cc(O)c(O)c(OC(=O)c3cc(O)c(O)c(O)c3)c2)[C@@H]1OC(=O)c1cc(O)c(O)c(OC(=O)c2cc(O)c(O)c(O)c2)c1)c1cc(O)c(O)c(OC(=O)c2cc(O)c(O)c(O)c2)c1 [TANNIC ACID]

*A*
1: 12.8; 2: 12.4

====

Could you please report measured Mono for the items listed next?
Organism: Rattus norvegicus
Test: Open TG-GATES - Regimen: Single
Assay type: toxicity, organism-based, Sprague-Dawley
Design: regimen Single, gender Male, age 6 weeks
Settings: in vivo, po, 100 mg/kg, 6 h, tissue Blood, route gavage, dose level Low
Give bare numbers, in %.

1) CN/C(=N/CCSCc1nc[nH]c1C)NC#N [CIMETIDINE] :: 2.8

*Q* Using the record for O=C(OC[C@H]1O[C@@H](OC(=O)c2cc(O)c(O)c(OC(=O)c3cc(O)c(O)c(O)c3)c2)[C@H](OC(=O)c2cc(O)c(O)c(OC(=O)c3cc(O)c(O)c(O)c3)c2)[C@@H](OC(=O)c2cc(O)c(O)c(OC(=O)c3cc(O)c(O)c(O)c3)c2)[C@@H]1OC(=O)c1cc(O)c(O)c(OC(=O)c2cc(O)c(O)c(O)c2)c1)c1cc(O)c(O)c(OC(=O)c2cc(O)c(O)c(O)c2)c1 [TANNIC ACID] , report its Mono.
*A* 6.4

====

Could you please report measured TP for the items listed next?
Organism: Rattus norvegicus
Assay: Open TG-GATES - Regimen: Single
Type: toxicity, organism-based, Sprague-Dawley
Set-up: regimen Single, gender Male, age 6 weeks
Settings: in vivo, po, 0 mg/kg, 24 h, tissue Plasma, route gavage, dose level Control
Numbers only, in g/dL.

Some compounds with known TP results, for comparison:
1. CS(=O)(=O)O.Cc1ccc(NC(=O)c2ccc(CN3CCN(C)CC3)cc2)cc1Nc1nccc(-c2cccnc2)n1 [IMATINIB MESYLATE] :: 5.8
2. NC1=NC(=O)C(c2ccccc2)O1 (centres undefined) :: 5.4
3. CN(C)CCC(c1ccc(Cl)cc1)c1ccccn1 (centres undefined) :: 5.8
4. CN1C(=O)CCS(=O)(=O)C1c1ccc(Cl)cc1 (centres undefined) :: 5.7
5. CC(C)NNC(=O)c1ccncc1 :: 5.6

Consider the following items and state reported TP for each.
1. Cc1nnc2n1-c1ccc(Cl)cc1C(c1ccccc1Cl)=NC2
2. CN/C(=N/CCSCc1nc[nH]c1C)NC#N
3. CCCc1cc(=O)[nH]c(=S)[nH]1
4. O=C(OC[C@H]1O[C@@H](OC(=O)c2cc(O)c(O)c(OC(=O)c3cc(O)c(O)c(O)c3)c2)[C@H](OC(=O)c2cc(O)c(O)c(OC(=O)c3cc(O)c(O)c(O)c3)c2)[C@@H](OC(=O)c2cc(O)c(O)c(OC(=O)c3cc(O)c(O)c(O)c3)c2)[C@@H]1OC(=O)c1cc(O)c(O)c(OC(=O)c2cc(O)c(O)c(O)c2)c1)c1cc(O)c(O)c(OC(=O)c2cc(O)c(O)c(O)c2)c1

*A*
5.3
5.6
5.6
5.5

====

Species on record: Rattus norvegicus
Assay: Open TG-GATES - Regimen: Single
Format: toxicity, organism-based, Sprague-Dawley
Design: regimen Single, gender Male, age 6 weeks
Conditions: in vivo, po, 0 mg/kg, 6 h, tissue Plasma, route gavage, dose level Control
MEASUREMENT KIND: ALP (IU/L)
Numbers only, in IU/L.

Some molecules with known ALP results, for comparison:
1. Cc1nnc2n1-c1ccc(Cl)cc1C(c1ccccc1Cl)=NC2 :: 1476.8
2. NC1=NC(=O)C(c2ccccc2)O1 (configuration not stated) :: 1338
3. Brc1ccccc1 :: 1707

Consider the following items and state reported ALP for each.
1. CS(=O)(=O)O.Cc1ccc(NC(=O)c2ccc(CN3CCN(C)CC3)cc2)cc1Nc1nccc(-c2cccnc2)n1 [IMATINIB MESYLATE]
2. CNC(=C[N+](=O)[O-])NCCSCc1ccc(CN(C)C)o1
3. CC(C)NNC(=O)c1ccncc1

*A*
1529.4
839.8
1530.2

*Q* Using the record for `CCOc1ccc(NC(C)=O)cc1` , report its ALP.
*A* 1471.4

====

Could you please report measured Cl for the items listed next?
Species on record: Rattus norvegicus
Assay: Open TG-GATES - Regimen: Single
Type: toxicity, organism-based, Sprague-Dawley
Set-up: regimen Single, gender Male, age 6 weeks
Settings: in vivo, po, 100 mg/kg, 24 h, tissue Plasma, route gavage, dose level Low
Answers without a unit are incomplete; give the number and then its unit.

1. CN/C(=N/CCSCc1nc[nH]c1C)NC#N :: 102.2 meq/L
2. CNC(=C[N+](=O)[O-])NCCSCc1ccc(CN(C)C)o1 :: 102.2 meq/L

Consider the following items and state reported Cl for each.
1. COC(=O)C1=C(C)NC(C)=C(C(=O)OC)C1c1ccccc1[N+](=O)[O-]
2. Cc1nnc2n1-c1ccc(Cl)cc1C(c1ccccc1Cl)=NC2

*A*
1. 109.4 meq/L
2. 104.2 meq/L

*Q* Using the record for `O=C(OC[C@H]1O[C@@H](OC(=O)c2cc(O)c(O)c(OC(=O)c3cc(O)c(O)c(O)c3)c2)[C@H](OC(=O)c2cc(O)c(O)c(OC(=O)c3cc(O)c(O)c(O)c3)c2)[C@@H](OC(=O)c2cc(O)c(O)c(OC(=O)c3cc(O)c(O)c(O)c3)c2)[C@@H]1OC(=O)c1cc(O)c(O)c(OC(=O)c2cc(O)c(O)c(O)c2)c1)c1cc(O)c(O)c(OC(=O)c2cc(O)c(O)c(O)c2)c1` , report its Cl.
*A* 103.8 meq/L

====

Could you please report measured BUN for the items listed next?
Organism: Rattus norvegicus
Experiment: Open TG-GATES - Regimen: Single
Assay type: toxicity, organism-based, Sprague-Dawley
Parameters: regimen Single, gender Male, age 6 weeks
Details: in vivo, po, 0 mg/kg, 24 h, tissue Plasma, route gavage, dose level Control
Numbers only, in mg/dL.

1. Nc1c2c(nc3ccccc13)CCCC2 :: 18.8
2. NC1=NC(=O)C(c2ccccc2)O1 (stereo not given) :: 15

Consider the following items and state reported BUN for each.
1. COC(=O)C1=C(C)NC(C)=C(C(=O)OC)C1c1ccccc1[N+](=O)[O-]
2. CCOc1ccc(NC(C)=O)cc1
3. CN/C(=N/CCSCc1nc[nH]c1C)NC#N
4. CNC(=C[N+](=O)[O-])NCCSCc1ccc(CN(C)C)o1
5. O=C(OC[C@H]1O[C@@H](OC(=O)c2cc(O)c(O)c(OC(=O)c3cc(O)c(O)c(O)c3)c2)[C@H](OC(=O)c2cc(O)c(O)c(OC(=O)c3cc(O)c(O)c(O)c3)c2)[C@@H](OC(=O)c2cc(O)c(O)c(OC(=O)c3cc(O)c(O)c(O)c3)c2)[C@@H]1OC(=O)c1cc(O)c(O)c(OC(=O)c2cc(O)c(O)c(O)c2)c1)c1cc(O)c(O)c(OC(=O)c2cc(O)c(O)c(O)c2)c1
6. CCCc1cc(=O)[nH]c(=S)[nH]1

*A*
[15.2, 15.2, 15.6, 16, 18.2, 19.2]

Consider the following items and state reported BUN for each.
1. Cc1nnc2n1-c1ccc(Cl)cc1C(c1ccccc1Cl)=NC2
2. Brc1ccccc1

*A*
1. 13.6
2. 14.2

====

Species: Rattus norvegicus
Experiment: Open TG-GATES - Regimen: Single
Assay type: toxicity, organism-based, Sprague-Dawley
Parameters: regimen Single, gender Male, age 6 weeks
Settings: in vivo, po, 0 mg/kg, 9 h, tissue Plasma, route gavage, dose level Control
MEASUREMENT KIND: Na (meq/L)
Answers are plain numbers, in meq/L.

1) CN/C(=N/CCSCc1nc[nH]c1C)NC#N :: 140.8

Consider the following items and state reported Na for each.
1. CCCc1cc(=O)[nH]c(=S)[nH]1
2. CS(=O)(=O)O.Cc1ccc(NC(=O)c2ccc(CN3CCN(C)CC3)cc2)cc1Nc1nccc(-c2cccnc2)n1 [IMATINIB MESYLATE]

*A*
139.8
140.3
